Values compiled from PubChem BioAssay (NCI).

compounds and their reported TGI
Test system: MDA-MB-435
Protocol details: NCI tumour cell line growth inhibition, 48 h

Completed entries (count: 3):
>  <Compound>
NC1=C(Br)C(=O)c2ncccc2C1=O

>  <TGI>
0.313 µM

$$$$
>  <Compound>
COc1ccc(C(=O)/C=C/c2c(C(F)(F)F)nc3sccn23)cc1OC

>  <TGI>
> 100 µM

$$$$
>  <Compound>
C=CC(=O)N1CCN(c2nc(OC[C@@H]3CCCN3C)nc3c2CCN(c2cccc4cccc(C)c24)C3)C[C@@H]1CC#N

>  <TGI>
3.19 µM

$$$$

Inquiry: Please report the recorded TGI for `Cc1nc(-n2[nH]c(C)c(CCO)c2=O)[nH]c(=O)c1CCO` .
Reply text: > 100 µM

Inquiry: Please give the result for NC1CC(N)c2c(Br)sc(Br)c21 (stereo unspecified) too.
Reply text: > 100 µM

Inquiry: Okay, and `CN(C)c1ccc(-c2cc(-c3ccc(Nc4nc(Nc5ccccc5)nc(Nc5ccc(Cl)cc5)n4)cc3)nc(N)n2)cc1` ?
Reply text: 74.9 µM
